Assignment: determine reported Ki for the given molecules.
Target: PKC delta kinase (Homo sapiens, UniProt Q05655)
Sequence (Q05655 whole entry): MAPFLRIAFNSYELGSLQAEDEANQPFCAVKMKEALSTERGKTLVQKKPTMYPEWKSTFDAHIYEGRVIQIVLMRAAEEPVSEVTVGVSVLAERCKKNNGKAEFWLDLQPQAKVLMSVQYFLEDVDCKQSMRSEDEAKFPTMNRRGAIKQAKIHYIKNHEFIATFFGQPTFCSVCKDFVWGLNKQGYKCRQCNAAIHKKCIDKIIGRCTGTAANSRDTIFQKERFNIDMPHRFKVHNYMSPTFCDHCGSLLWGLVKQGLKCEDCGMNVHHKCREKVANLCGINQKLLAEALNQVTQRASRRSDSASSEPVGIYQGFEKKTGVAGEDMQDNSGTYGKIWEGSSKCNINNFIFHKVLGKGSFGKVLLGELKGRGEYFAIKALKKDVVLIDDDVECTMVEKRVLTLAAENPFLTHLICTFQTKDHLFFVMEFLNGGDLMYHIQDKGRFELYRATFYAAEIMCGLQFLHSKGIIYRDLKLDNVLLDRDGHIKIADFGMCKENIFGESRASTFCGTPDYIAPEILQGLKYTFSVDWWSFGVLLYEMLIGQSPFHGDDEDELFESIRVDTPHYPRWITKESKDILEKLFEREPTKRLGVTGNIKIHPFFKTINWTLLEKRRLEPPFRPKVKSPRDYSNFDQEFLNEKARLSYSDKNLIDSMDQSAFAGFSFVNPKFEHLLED
Assay: PKC delta kinase inhibition, coupled-enzyme (NADH absorbance) assay, Ki
Format: biochemical
Conditions: 150 μM ATP, 46 nM PKC delta kinase, 30° C.; read-out: Ki PKC delta

For the molecule shown here, CC(C)CC1CN(c2cc(C(F)(F)F)cc(-c3n[nH]c4ncccc34)n2)CCC1N (centres unmarked) , give the reported Ki.
> 1.25 µM

Cool, now CNC1CCN(c2ccc(F)c(-c3n[nH]c4ncccc34)n2)CC1
> 1.25 µM

Cool, now FC(F)(F)c1ccc(N2CCNC(c3cccc(Br)c3)C2)nc1-c1n[nH]c2ncccc12 (centres unmarked)
> 1.25 µM

Cool, now CC(C)(O)CC1CN(c2ccc(C(F)(F)F)c(-c3n[nH]c4ncccc34)n2)CCN1 (centres unmarked)
> 2 µM

Cool, now CCC(N)C1CCCN(c2ccc(F)c(-c3n[nH]c4ncccc34)n2)C1 (centres unmarked)
< 0.5 µM

Cool, now C[C@H]1CNCCN1c1cccc(-c2n[nH]c3ncccc23)n1
< 0.5 µM

Cool, now CC(C)C(C)(O)C1CN(c2ccc(F)c(-c3n[nH]c4ncccc34)n2)CCN1 (centres unmarked) [Compound 201]
< 0.5 µM

Cool, now CNC(C1CCCN(c2ccc(F)c(-c3n[nH]c4ncccc34)n2)C1)C(C)(C)C (centres unmarked) [Compound 409]
< 2.8 µM

###

Molecular target: PKC theta kinase (Homo sapiens)
Assay: PKC theta kinase inhibition, coupled-enzyme (NADH absorbance) assay, Ki
Format: biochemical
Conditions: 240 μM ATP, 18 nM PKC theta kinase, 30° C.
Assignment: determine reported Ki for the given compounds.

For the compound shown here, C=Cc1ccc(N2CCNCC2)nc1-c1n[nH]c2ncccc12 [Compound 52] , give the reported Ki.
< 500 nM

Cool, now CC(C)CC1(C)CN(c2cccc(-c3n[nH]c4ncccc34)n2)CCN1 (centres unmarked) [Compound 89]
< 50 nM

Cool, now CC(C)C[C@H]1CN(c2ccc(C(F)(F)F)c(-c3n[nH]c4ncccc34)n2)C[C@H](C)N1 [Compound 202]
> 700 nM

Cool, now CCC(C)(C)C(N)C1CCCN(c2ccc(F)c(-c3n[nH]c4ncccc34)n2)C1 (centres unmarked) [Compound 378]
< 50 nM

Cool, now CC(C)C[C@H]1CN(c2cccc(-c3n[nH]c4ncc(Cl)cc34)n2)CCN1 [Compound 38]
< 50 nM

Cool, now NC1CCCN(c2ccc(F)c(-c3n[nH]c4ncccc34)n2)C1 (centres unmarked) [Compound 294]
< 500 nM

Cool, now NC[C@H]1CCN(c2ccc(F)c(-c3n[nH]c4ncccc34)n2)C1 [Compound 362]
< 500 nM

Cool, now NC1CCN(c2ccc(C(F)(F)F)c(-c3n[nH]c4ncccc34)n2)CC12CCCCC2 (centres unmarked) [Compound 461]
< 50 nM

###

Assignment: determine reported pKi for the given molecules.
Target: PKC delta kinase (Homo sapiens)
Assay: PKC delta kinase inhibition, coupled-enzyme (NADH absorbance) assay, Ki
Type: biochemical
Settings: 150 μM ATP, 46 nM PKC delta kinase, 30° C.; read-out: Ki PKC delta
pKi: −log10 of the molar value.

For the molecule shown here, CC(O)(C1CC1)C1CN(c2ccc(F)c(-c3n[nH]c4ncccc34)n2)CCN1 (centres unmarked) [Compound 247] , give the reported pKi.
> 6.30

Cool, now CCC(C)(O)C1CN(c2ccc(F)c(-c3n[nH]c4ncccc34)n2)CCN1 (centres unmarked) [Compound 243]
< 5.90

Cool, now CC(C)C[C@H]1CN(c2ccc(C(F)(F)F)c(-c3n[nH]c4ncccc34)n2)CCCN1
< 5.90

Cool, now CCC(CC)C(N)C1CCCN(c2ccc(F)c(-c3n[nH]c4ncccc34)n2)C1 (centres unmarked) [Compound 392]
< 5.90

Cool, now NCC1CCCN(c2cccc(-c3n[nH]c4ncccc34)n2)C1 (centres unmarked)
> 6.30

###

Biological target: PKC alpha kinase (Homo sapiens)
Assay: PKC alpha kinase inhibition, coupled-enzyme (NADH absorbance) assay, Ki
Type: biochemical
Details: 130 μM ATP, 4.5 nM PKC alpha kinase, 30° C.
pKi: −log10 of the molar value.
Reported Metric: pKi

For the molecule shown here, CC(C)(C)[C@H]1CN(c2ccc(C(F)(F)F)c(-c3n[nH]c4ncccc34)n2)CCN1 [Compound 77] , give the reported pKi.
< 5.90

Cool, now CCC1(C)CN(c2ccc(C(F)(F)F)c(-c3n[nH]c4ncccc34)n2)CCC1N (stereo not shown) [Compound 447]
< 5.90

Cool, now C[C@](O)(c1ccccc1)[C@@H]1CN(c2ccc(F)c(-c3n[nH]c4ncccc34)n2)CCN1 [Compound 274]
< 5.90

Cool, now CCC(N)(CC)C1CCCN(c2ccc(F)c(-c3n[nH]c4ncccc34)n2)C1 (stereo not shown) [Compound 377]
< 5.90

Cool, now CC(C)(F)C(C)(O)C1CN(c2ccc(F)c(-c3n[nH]c4ncccc34)n2)CCN1 (stereo not shown) [Compound 250]
< 5.90

Cool, now CNC(C1CCCN(c2ccc(F)c(-c3n[nH]c4ncccc34)n2)C1)C(C)(C)C (stereo not shown) [Compound 408]
< 5.90

Cool, now CC(C)C[C@@]1(O)CN(c2ccc(F)c(-c3n[nH]c4ncccc34)n2)CC[C@@H]1N [Compound 269]
> 6.30

Cool, now C[C@H]1CNCCN1c1cccc(-c2n[nH]c3ncccc23)n1 [Compound 30]
> 6.30

Cool, now CCC(O)(CC)C1CN(c2cccc(-c3n[nH]c4ncccc34)n2)CCN1 (stereo not shown) [Compound 154]
> 5.55

Cool, now Cc1cc(-c2n[nH]c3ncccc23)nc(N2CCC(N)CC2)c1 [Compound 107]
< 5.90

###

Biological target: PKC delta kinase (Homo sapiens)
Assay: PKC delta kinase inhibition, coupled-enzyme (NADH absorbance) assay, Ki
Assay type: biochemical
Conditions: 150 μM ATP, 46 nM PKC delta kinase, 30° C.; read-out: Ki PKC delta
pKi: −log10 of the molar value.
Reported Metric: pKi

For the compound shown here, CC(C)CC1(C)CN(c2cccc(-c3n[nH]c4ncccc34)n2)CCN1 (centres unmarked) , give the reported pKi.
> 7.30

Cool, now FC(F)(F)c1ccc(N2CCN[C@@H](c3ccccc3)C2)nc1-c1n[nH]c2ncccc12
> 5.55

Cool, now Fc1cnc2[nH]nc(-c3nc(N4CCNCC4)ccc3C(F)(F)F)c2c1
< 5.70

Cool, now OC1([C@@H]2CN(c3ccc(F)c(-c4n[nH]c5ncccc45)n3)CCN2)CC1
> 6.30

Cool, now NCC1CN(c2cc(C(F)(F)F)cc(-c3n[nH]c4ncccc34)n2)C1
< 5.90

Cool, now CC(C)C[C@H]1CN(c2cc(C#N)cc(-c3n[nH]c4ncccc34)n2)CCN1
> 6.30

Cool, now NCC1CCN(c2cc(CO)cc(-c3n[nH]c4ncccc34)n2)CC1
> 6.30

Cool, now FC(F)(F)CC1CN(c2cccc(-c3n[nH]c4ncccc34)n2)CCN1 (centres unmarked)
> 6.30

Cool, now CC(C)C(C)(O)C1CN(c2ccc(Cl)c(-c3n[nH]c4ncccc34)n2)CCN1 (centres unmarked) [Compound 437]
> 5.55

Cool, now C=C(F)c1cc(-c2n[nH]c3ncccc23)nc(N2CCNCC2)c1
> 6.30

Cool, now CNC(C1CCCN(c2ccc(F)c(-c3n[nH]c4ncccc34)n2)C1)C(C)(C)C (centres unmarked) [Compound 408]
< 5.90

###

Biological target: PKC alpha kinase (Homo sapiens, UniProt P17252)
Assignment: determine reported Ki for the given compounds.

For the compound shown here, OC1(C2CN(c3ccc(C(F)(F)F)c(-c4n[nH]c5ncccc45)n3)CCN2)COC1 (centres unmarked) [Compound 233] , give the reported Ki.
> 1250 nM

Cool, now CC(C)(C)C(N)C1CCN(c2ccc(F)c(-c3n[nH]c4ncccc34)n2)C1 (centres unmarked) [Compound 421]
> 1250 nM

Cool, now c1ccc(C2CN(c3cccc(-c4n[nH]c5ncccc45)n3)CCN2)cc1 (centres unmarked) [Compound 21]
< 2800 nM

Cool, now CC(C)C[C@H]1CN(c2ccc(-c3ccccc3)c(-c3n[nH]c4ncccc34)n2)CCN1 [Compound 49]
> 1250 nM

Cool, now CCC[C@H]1CN(c2ccc(C(F)(F)F)c(-c3n[nH]c4ncccc34)n2)C[C@@H]1N [Compound 341]
> 1250 nM

###

pKi: −log10 of the molar value.
These compounds were tested on PKC theta kinase (Homo sapiens, UniProt Q04759); pKi is the recorded read-out.
Sequence (Q04759 whole entry): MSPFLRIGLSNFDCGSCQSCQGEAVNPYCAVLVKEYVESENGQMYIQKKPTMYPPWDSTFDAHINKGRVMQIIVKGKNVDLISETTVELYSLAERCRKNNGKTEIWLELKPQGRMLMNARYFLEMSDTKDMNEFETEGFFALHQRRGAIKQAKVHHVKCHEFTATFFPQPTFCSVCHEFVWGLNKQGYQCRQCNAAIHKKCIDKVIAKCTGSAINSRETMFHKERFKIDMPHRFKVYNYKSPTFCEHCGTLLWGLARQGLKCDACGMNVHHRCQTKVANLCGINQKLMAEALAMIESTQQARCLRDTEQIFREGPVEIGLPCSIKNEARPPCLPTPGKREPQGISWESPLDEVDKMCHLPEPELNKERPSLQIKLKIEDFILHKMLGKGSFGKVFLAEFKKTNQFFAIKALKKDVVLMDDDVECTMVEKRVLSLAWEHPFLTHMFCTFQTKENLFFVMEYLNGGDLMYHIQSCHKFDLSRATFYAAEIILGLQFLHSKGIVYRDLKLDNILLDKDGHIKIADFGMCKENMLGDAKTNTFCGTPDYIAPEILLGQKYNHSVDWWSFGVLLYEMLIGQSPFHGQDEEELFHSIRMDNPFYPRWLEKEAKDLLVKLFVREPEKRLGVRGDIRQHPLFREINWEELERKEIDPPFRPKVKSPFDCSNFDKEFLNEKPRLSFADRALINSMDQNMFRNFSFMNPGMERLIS

For the compound shown here, CC(N)[C@H]1CCCN(c2ccc(F)c(-c3n[nH]c4ncccc34)n2)C1 (stereo partly drawn) [Compound 263] , give the reported pKi.
> 6.30

Cool, now CC(C)C[C@H]1CN(c2ccc(C(F)(F)F)c(-c3n[nH]c4ncccc34)n2)CC[C@H]1N
> 7.30

Cool, now NC1(C2CCCN(c3ccc(F)c(-c4n[nH]c5ncccc45)n3)C2)CCCC1 (stereo not drawn)
> 7.30

Cool, now CC(C)C(F)(F)C1CN(c2cccc(-c3n[nH]c4ncccc34)n2)CCN1 (stereo not drawn)
> 6.30

Cool, now OCc1cc(-c2n[nH]c3ncccc23)nc(N2CCNCC2)c1
> 6.30

Cool, now OC1(C2CN(c3ccc(C(F)(F)F)c(-c4n[nH]c5ncccc45)n3)CCN2)COC1 (stereo not drawn)
< 6.15
